// provenance: patent US20230218632A1

- ASSAYED_SYSTEM: TRAP1 enzyme (Homo sapiens)
- Sequence (Q12931 60-704): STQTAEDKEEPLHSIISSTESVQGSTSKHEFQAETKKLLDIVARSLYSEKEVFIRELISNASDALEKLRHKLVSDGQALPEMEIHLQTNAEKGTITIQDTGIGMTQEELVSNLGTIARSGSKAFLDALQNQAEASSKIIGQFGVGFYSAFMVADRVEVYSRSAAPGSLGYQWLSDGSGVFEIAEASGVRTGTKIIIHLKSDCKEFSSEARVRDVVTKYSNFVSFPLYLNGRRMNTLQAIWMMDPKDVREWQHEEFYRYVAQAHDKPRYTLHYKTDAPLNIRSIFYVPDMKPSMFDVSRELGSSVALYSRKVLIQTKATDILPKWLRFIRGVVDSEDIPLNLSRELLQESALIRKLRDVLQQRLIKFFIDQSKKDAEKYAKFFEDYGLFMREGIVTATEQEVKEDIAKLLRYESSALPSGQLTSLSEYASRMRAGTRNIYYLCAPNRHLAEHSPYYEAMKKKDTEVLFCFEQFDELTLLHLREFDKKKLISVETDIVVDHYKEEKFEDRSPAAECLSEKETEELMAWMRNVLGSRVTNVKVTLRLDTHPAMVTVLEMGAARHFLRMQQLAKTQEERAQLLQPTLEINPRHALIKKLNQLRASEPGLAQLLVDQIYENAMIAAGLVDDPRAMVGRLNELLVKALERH
- EXPERIMENT_NOTES: ADP Glo assay (ATPase activity of TRAP1)
- Format: biochemical
- CONDITION_SET: maximal percent activation; read-out: ADP GLO DRC: Mean Emax
- Procedure: Potency of test compounds to modulate the ATPase activity of TRAP1 enzyme was evaluated using ADP Glo assay. The assay is based on quantification of the ADP generated from ATP in the ATPase reaction. […] Second, the Kinase Detection Reagent is added to simultaneously convert ADP to ATP and allow the newly synthesized ATP to be measured using a luciferase/luciferin reaction. […]
ENDPOINT_LABEL: Emax

Cn1cccc(C(=O)Nc2ccc3c(c2)S(=O)(=O)N(c2ccc(C(F)(F)F)cc2)CCO3)c1=O [Compound 2268]	150 to 200%

Items follow; give Emax for each.
1. Cc1ocnc1C(=O)N(C)c1ccc2c(c1)S(=O)(=O)N(c1ccc(C(F)(F)F)cc1)CCO2 [Compound 2449]
2. Cc1ocnc1C(=O)Nc1ccc2c(c1)S(=O)(=O)N(c1ccc(F)cc1)CCO2 [Compound 2375]
3. Cc1oncc1C(=O)Nc1ccc2c(c1)S(=O)(=O)N(c1ccc(C(F)(F)F)cc1)CCO2 [Compound 2345]

Reply:
1. 150 to 200%
2. 150 to 200%
3. 150 to 200%

Items follow; give Emax for each.
1. Cc1ncoc1C(=O)Nc1ccc2c(c1)S(=O)(=O)N(c1ccc(Cl)cc1)CCO2 [Compound 1210]
2. O=C(Nc1ccc2c(c1)S(=O)(=O)N(c1ccc(C(F)(F)F)cc1)CCO2)c1cc[nH]c(=O)c1 [Compound 2187]
3. CCc1ncccc1C(=O)Nc1ccc2c(c1)S(=O)(=O)N(c1ccc(C(F)(F)F)cc1)CCO2 [Compound 2344]

Reply:
1: > 200%; 2: > 200%; 3: 150 to 200%
